Parameter: CC50 at 48 h. Scope: all listed entries.
assay: Cytotoxic analysis against J774.2 macrophages (MTT); settings: mouse, J774.2 macrophage cells
Give a bare numeral; the unit µM is implied.

Here's what some known entries look like.
Query string: Return CC50 at 48 h (reported value) for this compound: OCCc1ccccc1
Result string: 89.6

Query string: Using known records, supply CC50 at 48 h for OCc1ccccc1
Result string: 26.5

Query string: Report measured CC50 at 48 h; entry is OC1CCCC1
Result string: 24.4

Query string: Please indicate CC50 at 48 h recorded for Cc1ccccc1CO
Result string: 64.2

Please examine the following record next.
Query string: Given OCC=Cc1ccccc1 , respond with its CC50 at 48 h.
Result string: 47.4
